Reference source for all entries: PubChem BioAssay (NCI)

Assay: NCI Yeast Anticancer Drug Screen. Data for the rad50 strain (AID 155);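 also: 0% = growth of vehicle-only cultures of the same strain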
Conditions: S. cerevisiae rad50 strain growth inhibition; at 5.0 µM (retest, dose inferred, filed as 0.5)
Compounds without any hit were thinned out: in the full panel of roughly 79,000, 15% have a hit. Calls of active or inactive are those of the source. Rule as the data show it: active = growth inhibition above about 70%; inactive = the rest.
Can you answer with just one of these options? yes (active), no (inactive)

{"columns": ["molecule", "group.label"],
 "data": [
  ["C1=C(c2ccccc2)N(CCc2ccccc2)C(c2ccccc2)=CN1Cc1ccccc1", "no"],
  ["Fc1ccc(NC(=S)SCc2ccc3c(c2)OCO3)cc1", "no"],
  ["O=Cc1cc([N+](=O)[O-])cc(CCl)c1O", "no"],
  ["O=C1N(c2ccccc2)C(=O)N1c1ccccc1", "no"],
  ["CCCCCCCCOC(=O)c1cc(O)c(O)c(O)c1", "no"]
]}

I'd appreciate the recorded outcome for CC(C)CCCC(C)C1CCC2C3CC=C4CC([n+]5cccc6ccccc65)CCC4(C)C3CCC12C (centres undefined) from this test.
yes

I'd appreciate the recorded outcome for `O=c1c(Cl)c(Cl)cnn1CCCl` from this test.
no

I'd appreciate the recorded outcome for `O=C(O)c1c2ccccc2nc2[nH]c(=O)[nH]c(=O)c12` from this test.
no

I'd appreciate the recorded outcome for `O=S(=O)(O)c1ccc2cc(N=Nc3c(O)ccc4ccccc34)ccc2c1` from this test.
no

I'd appreciate the recorded outcome for `CCSC(=NC)Nc1ccc(Oc2ccc(Cl)cc2)cc1` from this test.
no

###

Assay: NCI Yeast Anticancer Drug Screen. Data for the rad50 strain (AID 155);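 also: 0% = growth of vehicle-only cultures of the same strain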
Details: S. cerevisiae rad50 strain growth inhibition; at 50.0 µM; stronger effect = higher value
About 79,000 compounds went through this panel and 15% of them were active in at least one assay; those are over-represented in the sample as a whole.
Would you mind sorting the entries by growth inhibition according to these classes? band 1: < 70%; band 2: ≥ 70% and < 90%; band 3: ≥ 90%

# count of solved cases: 4
{"columns": ["molecule", "group.label"],
 "data": [
  ["OC1CC2CCCC(C1)C2 (stereo not given)", "band 1"],
  ["Oc1c(Cl)c(Cl)c(Cl)c2ccccc12", "band 3"],
  ["CCN(CC)CCOc1ccc2c(C)c(-c3ccccc3)c(=O)oc2c1", "band 1"],
  ["Cc1cc([N+](=O)[O-])c(C)c2c1[nH]c1ccc(O)cc12", "band 2"]
]}

Which category fits this record: `CCCCN(C(=O)CCl)c1ccccc1`
band 1

Which category fits this record: `c1ccc(C(c2ccccc2)n2ccnc2)cc1`
band 2

###

So I've got a bunch of compounds here, and I need their growth inhibition values.
Assay: NCI Yeast Anticancer Drug Screen. Data for the cln2 rad14 strain (AID 165);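 also: 0% = growth equal to vehicle treated cultures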
Conditions: S. cerevisiae cln2 rad14 strain, at 5.0 µM (retest, dose inferred, filed as 0.5), stronger effect = higher value
This is part of a sample that, as a whole, favours compounds with a hit. Of some 79,000 tested, about 15% had one in any assay.
Answers are plain numbers, in %.

Below are worked cases with known answers.
{"columns": ["compound", "unit.name", "growth inhibition"],
 "data": [
  ["Cc1cc(C)[nH]c(=O)n1", "%", 6],
  ["O=Cc1cc([N+](=O)[O-])ccc1O.[Eu]", "%", 18],
  ["Cc1nc2ccccc2cc1CCl", "%", -47]
]}

// batch mode: one growth inhibition value per listed entry
1. CCc1nc(N)nc(N)c1-c1ccc(Cl)c(N=[N+]=[N-])c1
2. NC(C/[N+]([O-])=N/O)C(=O)O (configuration not stated)

[18, 37]

// batch mode: one growth inhibition value per listed entry
1. O[Si](c1ccccc1)(c1ccccc1)c1ccccc1.O[Si](c1ccccc1)(c1ccccc1)c1ccccc1.O[Si](c1ccccc1)(c1ccccc1)c1ccccc1.[O]=[V]
2. c1ccc([P+](CCCCCCCC[P+](c2ccccc2)(c2ccccc2)c2ccccc2)(c2ccccc2)c2ccccc2)cc1
3. O=c1[nH]c(SCc2c(Cl)c(Cl)c(Cl)c(Cl)c2Cl)nc(=S)[nH]1
4. COC1/C=C\C=C(/C)C(=O)Nc2cc3nc4ccc(Br)cc4oc-3c(c2=O)CC(C)CC(OC)C(O)C(C)/C=C(\C)C1OC(N)=O (configuration not stated)
5. O=C(C(c1ccccc1)c1ccccc1)C(c1ccccc1)c1ccccc1
6. CCCCCCCCCCCCN1C(=O)[N+](C)(C)N=C1[O-]

1: 15; 2: 30; 3: -36; 4: 85; 5: 2; 6: -4

Form: compound = `CCCCCCCCCCCCCCCC(=O)NCC[N+](C)(C)C` ; growth inhibition = 10

###

Assay: NCI Yeast Anticancer Drug Screen. Data for the bub3 strain (AID 167)
Conditions: S. cerevisiae bub3 mutant strain, at 5.0 µM (retest, dose inferred, filed as 0.5), stronger effect = higher value
The panel holds about 79,000 compounds, 15% with a hit somewhere; the sample as a whole holds those more often.
So I've got a bunch of compounds here, and I need their growth inhibition values.
Answers are plain numbers, in %.

{"columns": ["compound", "unit.name", "numeric.readout"],
 "data": [
  ["Nc1ccc([N+](=O)[O-])c(S(=O)(=O)O)c1", "%", -71],
  ["c1ccc2c(c1)CNc1ccccc1-2", "%", 47],
  ["CC(C)OP(=O)(OC(C)C)C(=Nc1ccccc1)NNc1ccc([N+](=O)[O-])cc1", "%", -17],
  ["NS(=O)(=O)c1ccc(Nc2c3ccccc3nc3c(C(=O)N4CCN(CCO)CC4)cccc23)cc1", "%", 32],
  ["CCOc1ccc(NC(=O)/C(=C\\c2ccc(C)cc2)C(C)=O)cc1", "%", -3]
]}

// batch mode: one growth inhibition value per listed entry
1. CC(=O)OCC1OC(n2c(=S)n(-c3ccccc3)c(=O)c3ccccc32)C(OC(C)=O)C(OC(C)=O)C1OC(C)=O (centres undefined)
2. CCCCCCCCCCCC(=O)CN1CCOCC1
3. Nc1cc(Cl)c(S(=O)(=O)O)cc1Cl
4. CCCC1=CCCC1
5. COc1ccc(/C=C/C(=O)CCN2CCN(CCC(=O)/C=C/c3ccc(OC)cc3)CC2)cc1
6. N#CC1(C2SCCS2=O)C2=C(C(=O)c3ccccc3C2=O)N2CCCC21 (centres undefined)
7. CCOc1ccc(N/N=C(\CCC(=O)O)C(=O)O)cc1
8. O=C1CCC(c2ccccc2)(C2(c3ccccc3)CCC(=O)O2)O1 (centres undefined)

1. 6
2. 87
3. 12
4. 1
5. -59
6. 33
7. -15
8. 2

###

Assay: NCI Yeast Anticancer Drug Screen. Data for the rad50 strain (AID 155);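 also: 0% = growth of vehicle-only cultures of the same strain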
Settings: S. cerevisiae rad50 strain growth inhibition; at 50.0 µM (retest, dose inferred, filed as 5.0); stronger effect = higher value
Experimental: Growth inhibition of yeast strains with defined genetic alterations is measured as a screen for potential anti-cancer activity. Selected strains with alterations in DNA damage repair or cell cycle control were exposed to compounds and growth inhibition was measured relative to vehicle treated controls. The strain used in this assay is rad50
Compounds without any hit were thinned out: in the full panel of roughly 79,000, 15% have a hit.
readout.type: growth inhibition (%)
Answers are plain numbers, in %.

Below are worked cases with known answers.
{"columns": ["compound", "unit.name", "growth inhibition"],
 "data": [
  ["C[C@@H](O)[C@H]1CC[C@H]2[C@@H]3CCC4=C/C(=N/O)CC[C@]4(C)[C@H]3CC[C@]12C", "%", 51],
  ["O/N=C/c1cc(I)c(O)c(I)c1", "%", 98],
  ["OC(CN1CCCCC1)c1cc(-c2ccc(Cl)cc2)nc2cc(Cl)ccc12 (stereo not given)", "%", 99],
  ["CC(C)C1=C(O)C2=C(C(=O)C1=O)C1(C)CCCC(C)(C)C1CC2O (stereo not given)", "%", 98],
  ["CCC(C)[P+](c1ccccc1)(c1ccccc1)c1ccccc1 (stereo not given)", "%", 36],
  ["CCOc1ccc(NC(=O)C(=O)NO)cc1", "%", 73],
  ["CCCC(C)NCCOC(=O)C(c1ccccc1)C1CCCCC1 (stereo not given)", "%", 49],
  ["N#CC(=C1C=CC(=NOC(=O)Nc2cccc3ccccc23)C=C1)c1ccccc1", "%", 99],
  ["Fc1ccc(/C=C2\\COCC3=C2NC(=S)NC3c2ccc(F)cc2)cc1 (stereo not given)", "%", 98],
  ["CCCCCCCCCCCCCCCCCC(=O)NCCO", "%", -6]
]}

// batch mode: one growth inhibition value per listed entry
1. O=C1NC(=O)c2cc([N+](=O)[O-])ccc21
2. O=C(O)/C(=C(/c1ccccc1)c1ccc(Cl)cc1)c1ccccc1

[12, 98]

// batch mode: one growth inhibition value per listed entry
1. O=C1CSC(=S)N1c1ccc(Cl)c(C(F)(F)F)c1
2. CC(c1ccccc1)c1ccc(O)cc1 (stereo not given)
3. CC1OC(OC2CC(O)(C(=O)CO)Cc3c(O)c4c(c(O)c32)C(=O)c2ccccc2C4=O)CC(N)C1O (stereo not given)
4. CCCCCCCCCCCCCCCCOP(=O)(O)OP(=O)(O)OCC1OC(n2ccc(N)nc2=O)C(O)C1O (stereo not given)
5. COc1ccc(/C=C2\CCCC(CN(C)C)C2=O)cc1 (stereo not given)
6. C=C1CC2(CC(c3ccccc3OC)OC(c3ccccc3OC)C2)OC1=O (stereo not given)
7. NC(CC(=O)O)C(=O)O (stereo not given)

[36, 73, 96, 97, 8, 58, 2]

Form: compound = C=C1C(=O)OC2C[C@@]3(C)CCC[C@H](C)C3=CC12 (stereo not given in full) (tested in a mixture with another compound) ; growth inhibition = 97
